test: yeast display, Sf9 membrane polyspecificity reagent, FACS + sequencing; frameworks hold sequencing errors
recordedMetric: polyreactivity (PSR sort gate)

Below: 5 sequences and their reported polyreactivity (PSR sort gate).
entrySequence	polyreactivity (PSR sort gate)
QVQLVESGGGLVLAGGSLRLSCAASGTIFGYYAMGWYRQAPGKDRELVAAITSDGDTYYADSVKGRFTISRDNAKNTVYLQMNSLKPEDTAVYYCNATYGGPYYIQYDYWGQGTQVTVSS	low polyreactivity
QVQLVESGGGLVQAGRSLRLSCAASGRTFARYAMGGYRQAPGKERELVAAINSGGSTNYADSVKGRFTISRDNAKNTDYLQMNSLKPEDTAVYYCAADSYWKWYIAYPYYWGQGTQVTVSS	high polyreactivity
QVQLVESGGGLVQAGGSLRLSCAASGSTFKPNVMGWSRLAPGKERELVAAITSTDDPTYYADSVKGRFSISRDNAKNTVYLQMNSLKPEDTAVDYCAVESLRDDFEYDYWGQGTQVTVSS	low polyreactivity
QVQLVESGGGLVQAGGTLRLSCAASGSIFRYYTMGWYRQAPGKERELVAAITWDGDSTYYADSVKGRFTISLDNAKNTVYLQMNSLKPEDTAVYYCNADDYGPGFDYWGQGTQVTVSS	low polyreactivity
QVQLVESGGGLVQAGGSLRLSCAASGSIFRTYVMGWYRQAPGKERELVATIDSTSGSTYYADSVKGRFTISRDNAKNTVYLQMNSLKPEDTAVYYCNVLVYYYYVVKSTYRWYDYWGQGTQVTVSS	high polyreactivity

Query: polyreactivity (PSR sort gate); subject: "QVQLVESGGGLVQAGGSLRLSCAAYGSILGIYAMGGYRQAPGKERELVAAIRTSSASTYYADSVKGRFTISRDNAKNTVYLQMNSLKPEDSAVYYCAAYAFSYTPYYSWGQGTQVTVSS"
high polyreactivity

Query: polyreactivity (PSR sort gate); subject: "QVQLVESGGGLVQAGGTLRLSCAASGFTFSINAMGWSRQAPGKERELVAGISWSGGITYYADSVKGRFTISRDNAKNTVYLQMNSLKPEDTAVYYCNTDYGLTTPVVWDDYWGQGTQVTVSS"
low polyreactivity

Query: polyreactivity (PSR sort gate); subject: "QVQLVESGGGLVQAGGSLRLSCAASGSTFPRNAMGWSRQAPGKERELVAAISFRGSTTYYADSVKGRFTISRDNAKNTVYLQMNSLKPEDTAVYYCAADGGRQARTYSRYYWGQGTQVTVSS"
high polyreactivity

* * *

assay: yeast display, Sf9 membrane polyspecificity reagent, FACS + sequencing; frameworks hold sequencing errors

entrySequence	polyreactivity (PSR sort gate)
QVQRVESGGGLVPAGGSLRLSCAASGSIFYYNAMGWYRQAPGKERELVAAISWGDGITYYADSVKGRFTISRDNAKKTVYVQMNSLKPEDTAVYYCAVDYYYLPYEYWGQGTQVTVSS	high polyreactivity
QVQLVESGGGLVQAGGSLRLSCAASGLIFTYYAMGWYRQAPGKERELVAAINWSGGSTYYADSVKGRFTISRDNAKNTVYLQMNSLKPEDTAVYYCAAAYANYRFYYWGQGTQVTVSS	high polyreactivity
QVQLVESGGGLVQAGGSLRLSCAASGIIFWRYAMGWYRQAPGKERELVASISSSGGRTYYADSVKGRFTISRDNAKNTVYLQMNSLTPEDTAVYYCAARGPYGYDLLYYWGQGTQVTVSS	high polyreactivity
QVQLVESGGGLVQAGGSLRLSCAASGLTFTNYAMGWYRQAPGKERELVAAISRSGARTYYADSVKGRFTISRDNAKNTVYLQMNSLKPEDTAVYYCATRYLSRGVYNYDYWGQGTQVTVSS	high polyreactivity

* * *

assay: yeast display, Sf9 membrane polyspecificity reagent, FACS + sequencing; frameworks hold sequencing errors
recordedMetric: polyreactivity (PSR sort gate)

Below: 4 sequences and their reported polyreactivity (PSR sort gate).
entrySequence	recordedMetric	experimentalValue
QVQLVESGGGLVQAGGRLRLSCAASGFTCGVYDMGWYRQAPGKERALVADIDFTGGDTYYADSVKGRFTISRDNAKNTVYLQMIRLKPEDTAVYYCAARSWGVIYDYFYLGLDYWGQGTQVTVSS	polyreactivity (PSR sort gate)	low polyreactivity
QVQLVESGGGLVQAGGSLRLSCAASGFTFYSYAMGWYRQAPGKERELVASISQSGGRTYYADSVKGRFTISRDNAKNTVYLQMNSLKPEDTAVYYCARQRSYGRSSYSYGYDYWGQGTKVTVSS	polyreactivity (PSR sort gate)	high polyreactivity
QVQLVESGGRLVQAGCSLRLSCAASGFTFYQNAMGWYRQAPGKVRELVAAISVSGDSTYYADSVKGRLTISRDNAKNTVYLQMNSLKPEDTAVYYCTEYFYYLSLYYYYWFNYDYWGHGTQVTVSS	polyreactivity (PSR sort gate)	low polyreactivity
QVQHEESGGGLVQAGGSLRLICAASGRTFADNAMGWYRQAPGTERELVPSISSVTSTNYADSVKGRFTISRDNAKYTVYFQMNSLKPEDPAVYDCNAYGPIWYTAVLGFGRYYGWTDYWGQGTQVTVSS	polyreactivity (PSR sort gate)	low polyreactivity

Query: polyreactivity (PSR sort gate); subject: "QVQLVESGGGLVQAGGSLRLSCAASGSNFRLYAMGWYRHAPGKERELVATISGSAGRTYYADSVKGRFTISRDYAKNTVYLQMNSLKPEDTAVYYCAARWYQEYFWGQGTQVTVSS"
high polyreactivity

Query: polyreactivity (PSR sort gate); subject: "QVQLVESGGGLVQAGGSLRLSCAASGRTFIRYAMGGYRQATGKERELVAAISWSGGSTYYADSVKGRFTISRDNAKNTVYLQMNSLKPEDTAVYYCARRVGYKFSYDYWGQGTQVTVSS"
high polyreactivity

Query: polyreactivity (PSR sort gate); subject: "QVQLVESGGGLVQAGGSLRLSCAASGSIFYRYAMGWNRQAPGKERELVATITQSGVSTYYADSEKGRFTISRDNAKNTVYLQMNSLKPEDTAVYYCAASYYYTIGPYFRKFDWGQGTQVTVSS"
low polyreactivity

Query: polyreactivity (PSR sort gate); subject: "QVHLVESGGGLVQAGGSLRLSCAASGSILLRYAMGWYRQAPGKERELVAAIRTIGASTYYADSVKGRFTISRDNAKNTVYLQMNSLKPEDTAVYYCNAYLAEVLPLGKGRLYDYWGLGTQVTVSS"
low polyreactivity

Query: polyreactivity (PSR sort gate); subject: "QVQLVESGGGLVQAGGILRLSCAASGSIFEYNAMGRYRKPPGKERELCASISWSGGSTYYADSVKGRYTISRDNAKNTVYLQMYSLKPEATAVYYCNVRKWSRWFRESYYWGQGTQVTVSS"
high polyreactivity

Query: polyreactivity (PSR sort gate); subject: "QVQLVESGGGLVQAGGSLRLSCAASGRTLDWNAMGWYRQAPGKERELVAAISWSGDSTYYADSVKGRFTISRDNAKNTVYLQMNSLKPEDTAVYYCDARYGRSWGRGYGYWGQGTQVTVSS"
low polyreactivity

* * *

assay: yeast display, Sf9 membrane polyspecificity reagent, FACS + sequencing; frameworks hold sequencing errors
recordedMetric: polyreactivity (PSR sort gate)

Below: 8 sequences and their reported polyreactivity (PSR sort gate).
entrySequence	experimentalValue
QVQLVESGGGLVQAGGSLRLSCAASGLIFVGYAMGWYRQAPGTERELVAAITSGGSTNYADSVKGRFTISRDNAKNTVYLQMNSLKPEDTAVYYCAASDAIPLRYDYWGQGTQVTVSS	low polyreactivity
QVQLVESGGGLVQAGGSLRLICAASGSIFAYNAMGWYRQAPGKERELVAAITDSGGSTFYADSVKGRFTISRDNAKNTVYLQMNSLKPEDTAVYYCATSGDRLVWGQGTQVTVSS	low polyreactivity
QVQLVVSGGGLDQARGSLRLSCAASGSNFFYYAMGWYRQAPWKERELVAGINWSGGSTYADSVKGRFTISRDNAKNTVYLQMNSLKPEDTAVYYCAAKFYSERSSYHYWGQGTQVTVSS	low polyreactivity
QVQLVESGGGLVQAGGSLRLSCAASGSIFYPNAMGWYRQAPGKESELVAAISSSGGTNYADSVKGRFTISRDNAKNTVYLQMNSLKPEDTAVYYCAADIRSNRLYDGGYWGQGTQVTVSS	low polyreactivity
QVQLVESGGGLVQAGGSLRLSCAASGRILGRYAMGWYRQAPGKERELVATITSGDDTNYADSVKGRFTISRDNAKNTVYLQMNSLKPEDTAVGYWGQGTQVTVSS	low polyreactivity
QVQLVESGGGLVQAGGSLRLSCAASGSIFEQYPMGWYRQAPGKERELVAAISRRSGRTYYADSVKGRFTISRDNAKHTVYLQMHSLIPEDTAVYYCAASGIYFVQYNSWGQGTHVTVSS	high polyreactivity
QVQLVESGGGLVQAGGSLRLSCAASGYIFIRNAMGWYRPAPGKDRELVAAISWTGGNTYYADSVKGRFTISRDNAKNTVYLQMNSLKPEDTAVYYCAALRSVFKSFRTTYVRYDYWGQATQVTVSS	high polyreactivity
QVQLVESGGGLVQAGGSLRLSCAASGSTFSRYAMGWYRQAPGKERELVAAISSRGGSTYYADSVKGRFTISRDNAKNTVYLQMNSLKPEDTAVYYCNALSSYQNHVYPYDYWGQGTQVTVSS	high polyreactivity

Query: polyreactivity (PSR sort gate); subject: "QVQLVESGGGLVQAGGSLGLSCAASGFIVGYYTMGWDRQAPGKERELVAAISSSGGRTYDADSVKGRFTISRDKAKNTVYFQMNSLKPEDTAVYYCNADRTLRFGYGYCGQGTQVTVSS"
low polyreactivity

Query: polyreactivity (PSR sort gate); subject: "QVQLVESGGGLVQAGGSLRLSCAASGYILHRNAMGWYRQAPGKERELVAVISWGGTSTYYADSVKGRFTISRDNAKNTVYLLMNSLKPEDTAVYYCNAKGWYYKYDYWGQGTQVNVSS"
high polyreactivity

Query: polyreactivity (PSR sort gate); subject: "QVQLVESGGGLVQAGGSLRLSCAASGSTFYWYTMGWYRQAPGKERELVATITSVGRTNYADSVKGRFTISRDNAKNTVYLQMNSLKPEDTAVYYCAADSYSYRYYYWGQGTQVTVSS"
high polyreactivity

Query: polyreactivity (PSR sort gate); subject: "QVQLVESGGGLVQAGGSLRLSCAASGRIFWGNAMGWYRQAPGKERELVAAISSSGGSTYYADSVKGRFTISRDNAKNTVYLQMNSLKPEDTAVYYCAARYPTYYYRYDYWGQGTQVTVSS"
high polyreactivity

meta.source: the nanobody polyreactivity screen of Harvey et al. (2022)
